- Measured on: T1, IL-2R on human primary T cells (human, UniProt P01589 22-272; P14784 27-551; P31785 23-369)
- T1 sequence (looked up) 1: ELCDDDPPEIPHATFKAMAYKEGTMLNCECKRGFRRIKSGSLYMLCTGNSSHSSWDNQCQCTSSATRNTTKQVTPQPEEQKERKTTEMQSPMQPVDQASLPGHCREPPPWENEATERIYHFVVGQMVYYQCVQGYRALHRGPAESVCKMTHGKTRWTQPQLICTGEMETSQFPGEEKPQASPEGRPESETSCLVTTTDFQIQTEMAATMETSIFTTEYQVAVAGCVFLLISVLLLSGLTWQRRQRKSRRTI
- T1 sequence (looked up) 2: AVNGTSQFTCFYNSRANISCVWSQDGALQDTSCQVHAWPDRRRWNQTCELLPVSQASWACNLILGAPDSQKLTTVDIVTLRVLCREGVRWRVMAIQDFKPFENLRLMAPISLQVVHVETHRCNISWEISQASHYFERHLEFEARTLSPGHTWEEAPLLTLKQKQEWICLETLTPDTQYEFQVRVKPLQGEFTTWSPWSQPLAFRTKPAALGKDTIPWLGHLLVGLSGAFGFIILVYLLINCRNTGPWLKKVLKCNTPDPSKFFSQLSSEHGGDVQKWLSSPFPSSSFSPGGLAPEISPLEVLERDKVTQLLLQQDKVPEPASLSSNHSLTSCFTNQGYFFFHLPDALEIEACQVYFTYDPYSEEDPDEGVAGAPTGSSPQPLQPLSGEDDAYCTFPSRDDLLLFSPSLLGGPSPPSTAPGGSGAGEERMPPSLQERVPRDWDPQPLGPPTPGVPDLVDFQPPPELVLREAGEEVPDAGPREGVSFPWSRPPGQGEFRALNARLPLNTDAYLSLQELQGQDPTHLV
- T1 sequence (looked up) 3: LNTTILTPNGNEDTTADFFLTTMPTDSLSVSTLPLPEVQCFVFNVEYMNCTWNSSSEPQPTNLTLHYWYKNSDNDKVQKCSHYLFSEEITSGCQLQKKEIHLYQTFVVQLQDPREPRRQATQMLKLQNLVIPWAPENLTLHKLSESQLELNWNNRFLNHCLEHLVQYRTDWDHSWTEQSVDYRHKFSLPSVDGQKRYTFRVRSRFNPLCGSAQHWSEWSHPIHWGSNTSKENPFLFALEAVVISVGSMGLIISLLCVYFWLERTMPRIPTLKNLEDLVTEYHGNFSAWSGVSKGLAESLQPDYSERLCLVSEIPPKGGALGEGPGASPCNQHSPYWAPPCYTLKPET
- Assay remarks: cell-based or functional assay
Measured property: CD8 naïve EC50 (nM), STAT5 phosphorylation

[
  {
    "Binder": "SEQ ID NO 21 (ligand) APTSSSTKKTQLQLEHLLLDLQMILNGINNHKNPKLTRMLTFKFYMPKKATELKHLQCLEEELKPLEEALNLAPSKNFHLRPRDLISNINVIVLELKGSETTFMCEYADETATIVEFLNRWITFSQSIISTLT",
    "Unit symbol": "nM",
    "Meas value": 204
  },
  {
    "Binder": "SEQ ID NO 18 (ligand) APTSSSTKKTQLQLEHLLLDLQMILNGINNYKNPKLTRMLTFKFYMPKKATELKHLQCLEEELKPLEEVLNLAQSKNFHFDPRDVVSNINVFVLELKGSETTFMCEYADETATIVEFLNRWITFSQSIISTLT",
    "Unit symbol": "nM",
    "Meas value": 21.1
  }
]

a = SEQ ID NO 35 (ligand) APTSSSTKKTQLQLEHLLLDLQMILNGINNHKNPKLTRMLTFKFYMPKKATELKHLQCLEEELKPLEEVLNLAPSKNFHLRPRDLISDINVIVLELKGSETTFMCEYADETATIVEFLNRWITFSQSIISTLT
b = SEQ ID NO 9 (ligand) APTSSSTKKTQLQLEHLLLDLQMILNGINNHKNPRLTRMLTFKFYMPKKATELKHLQCLEEELKPLEEALRLAPSKNFHLRPRDLISNINVIVLELKGSETTFMCEYADETATIVEFLNRWITFSQSIISTLT
Higher CD8 naïve EC50 (nM), STAT5 phosphorylation between a and b ? Respond using the label that marks the chosen record.
a
